EXPERIMENTAL_TARGET: WNV RdRp (West Nile virus)
Construct: NS5 proteins and SARS-CoV-2 nsp12, nsp8 and nsp7 were expressed with appropriate purification and folding tags; His6-TEV site (N); made in house; host or cells: E. coli BL-21 CodonPlus (DE3)-RIL
Sequence (Q9Q6P4 2529-3433 limits assumed): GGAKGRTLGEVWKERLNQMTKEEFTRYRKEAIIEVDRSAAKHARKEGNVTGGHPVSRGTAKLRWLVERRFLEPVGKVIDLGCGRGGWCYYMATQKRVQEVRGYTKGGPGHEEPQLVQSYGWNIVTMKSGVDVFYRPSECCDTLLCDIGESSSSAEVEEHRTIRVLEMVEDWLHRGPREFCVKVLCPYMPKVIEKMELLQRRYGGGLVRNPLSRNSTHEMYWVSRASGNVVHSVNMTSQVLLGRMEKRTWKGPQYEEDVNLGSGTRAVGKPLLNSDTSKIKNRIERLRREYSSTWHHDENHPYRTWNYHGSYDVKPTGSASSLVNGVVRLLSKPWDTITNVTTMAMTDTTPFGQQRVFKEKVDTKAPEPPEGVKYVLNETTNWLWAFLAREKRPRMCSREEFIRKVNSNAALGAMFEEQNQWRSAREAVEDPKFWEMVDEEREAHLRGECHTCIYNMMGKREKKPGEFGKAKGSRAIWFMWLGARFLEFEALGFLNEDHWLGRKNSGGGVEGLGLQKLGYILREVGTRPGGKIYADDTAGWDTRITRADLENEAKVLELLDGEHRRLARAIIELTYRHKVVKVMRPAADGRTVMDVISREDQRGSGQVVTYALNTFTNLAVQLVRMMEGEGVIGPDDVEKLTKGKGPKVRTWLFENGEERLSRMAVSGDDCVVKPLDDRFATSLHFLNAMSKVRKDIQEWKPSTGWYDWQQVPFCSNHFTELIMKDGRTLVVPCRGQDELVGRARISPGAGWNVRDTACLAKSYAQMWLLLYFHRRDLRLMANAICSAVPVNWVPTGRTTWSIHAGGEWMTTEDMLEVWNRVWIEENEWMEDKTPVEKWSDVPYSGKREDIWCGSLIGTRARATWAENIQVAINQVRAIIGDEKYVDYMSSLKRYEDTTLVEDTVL
EXPERIMENTAL_PROTOCOL: biochemical
OBSERVED_PROPERTY: pIC50
One number for each entry, as −log10 of the molar value.

Request: Bench note: what pIC50 did `Cc1c(C)c2c(c3c1CC[n+]1ccc(/C=C4\Sc5ccccc5N4C)cc1-3)-c1cccc(/C=C3\Sc4ccccc4N3C)[n+]1CC2` show?
Result: 5.47
